Recorded log10 of TGI by entry
System: NCI-H522 lung
method-description: NCI tumour cell line growth inhibition, 48 h
reported-property: log10 of TGI (log10 of the value in µM)

molecule | log10 of TGI
COC(=O)C(Cc1nc2ccccc2[nH]c1=O)C(=O)C(=O)Nc1cc(C(F)(F)F)ccc1Cl (centres undefined) | 1.28
Oc1c(CN2CCOCC2)cc(COCc2ccccc2)c2cccnc12 | 0.93
Nc1ccc(C(=O)N/C(=C\c2cccc([N+](=O)[O-])c2)c2nc3c4c(ccc3[nH]2)C(=O)c2ccccc2C4=O)cc1 | 1.85
O=C(Oc1cccc(Cl)c1)c1cc2cc(CCl)ccc2oc1=O | 1.69
CC(C)N(C(C)C)P(OCCC#N)OC1CC(n2cnc3c(=O)[nH]cnc32)OC1COC(=O)NCCCCCCNC(=O)OC(C)(C)c1ccc(-c2ccccc2)cc1 (centres undefined) | 1.51
O=C1c2ccn(CCCCN3CCC(O)CC3)c2C(=O)c2c1c(O)c1ccccc1c2O | 1.16
COc1cccc(-c2cc(=O)c3cc(Cl)cnc3[nH]2)c1 | 0.55
Cc1cc(S(=O)(=O)Nc2nc3cc(Cl)ccc3o2)c(SCc2ccccc2)cc1Cl | 1.60
